assay: Cell viability in monocyte/macrophages (M/M); type: cell-based, human; conditions: human
measurement name: CC50

QUERY: Which value of CC50 has been reported for `Nc1cc(OCCOCP(=O)(O)O)nc(N)n1` in the records?
RESULT: > 100 µg/mL

----------
assay: Inhibition of CEM cell growth (cytostatic activity); format: cell-based; conditions: human, CEM cells; read-out: CC50 for CEM cells
Exercise: for every item that follows, state its recorded CC50.
One number for each entry, in mg/L.

[
  {
    "smiles text": "Nc1cc(OCCOCP(=O)(O)O)nc(N)n1",
    "CC50 / mg/L": 11
  }
]

With those in mind, consider the next compound.
QUERY: Name the reported CC50 value associated with the compound `Nc1nc(O)cc(OCCOCP(=O)(O)O)n1`
RESULT: 2.5

----------
system: HIV-1(IIIB); experiment: HIV-1(IIIB)-induced cytopathicity in CEM cell cultures; type: cell-based; conditions: Human immunodeficiency virus 1, CCRF-CEM; HIV-1(IIIB)-induced cytopathicity in CEM cell cultures; Table 1; read-out: EC50 HIV-1 (CEM)
measurement name: EC50 (µg/mL)
Numbers only, in µg/mL.

The following compounds have reported results that may help.
[
  {
    "compound": "Nc1cc(OCCOCP(=O)(O)O)nc(N)n1",
    "target entity": "HIV-1(IIIB)",
    "recorded number": 0.8
  },
  {
    "compound": "Nc1nc(O)cc(OCCOCP(=O)(O)O)n1",
    "target entity": "HIV-1(IIIB)",
    "recorded number": 2.2
  },
  {
    "compound": "Nc1cc(SCCOCP(=O)(O)O)nc(N)n1",
    "target entity": "HIV-1(IIIB)",
    "recorded number": 5.5
  }
]

Moving on to another compound below.
QUERY: # query: EC50 of entry Nc1ncnc2c1ncn2CCOCP(=O)(O)O [PMEA, 9-[(2-phosphono-methoxy)ethyl]adenine, reference compound]
RESULT: 0.96

----------
Please go through the items and note down their CC50.
assay: Toxicity in CrFK cells; assay type: cell-based, feline; settings: cat, CrFK cells; Table 2
Give bare numbers, in µg/mL.

[
  {
    "molecule": "Nc1cc(SCCOCP(=O)(O)O)nc(N)n1 [Compound 2]",
    "CC50 / µg/mL": 42
  }
]

# context switch: different molecule, same CC50
QUERY: I am curious: what CC50 value has been reported for Nc1cc(OCCOCP(=O)(O)O)nc(N)n1 [Compound 1] ?
RESULT: 11

----------
test system: MSV; format: in vivo; settings: 20 mg/kg; premature death not taken into account
For each record, write down the corresponding Number of Long-Term Survivors (%) (>30 days).
Answers are plain numbers, in %.

Value sought for every listed molecule: Number of Long-Term Survivors (%) (>30 days).
1. C[C@H](Cn1cnc2c(N)ncnc21)OCP(=O)(O)O [(R)-PMPA, reference compound]
2. Nc1cc(SCCOCP(=O)(O)O)nc(N)n1 [Compound 2]
3. Nc1cc(OCCOCP(=O)(O)O)nc(N)n1 [Compound 1]
4. Nc1ncnc2c1ncn2CCOCP(=O)(O)O [PMEA, 9-[(2-phosphono-methoxy)ethyl]adenine, reference compound]

RESULT:
1. 100
2. 20
3. 100
4. 94

----------
test: Cell viability in PBL; assay type: cell-based; details: human; reduction of cell viability; Table 2
measurement name: CC50 (µg/mL)
Numbers only, in µg/mL.

QUERY: If you can, please state the reported CC50 value of Nc1ncnc2c1ncn2CCOCP(=O)(O)O [PMEA, 9-[(2-phosphono-methoxy)ethyl]adenine, reference compound] .
RESULT: 1.7
